Tested on: Bacillus megaterium M018
ASSAY EXPLANATION: Antibiotic susceptibility, antibiotic disks on Muller-Hinton medium
Format: cell-based
Design: key: +++ (very); ++ (somewhat); + (marginally); resistance is indicated by (−)
CONDITIONS: antibiotic disk, 48-hour incubation at 25° C.
RECORDED METRIC: Susceptibility degree of M018

INSERT INTO assay_data (chemical_string, target_desc, obs_value) VALUES
  ('CN(C)[C@@H]1C(O)=C(C(N)=O)C(=O)[C@@]2(O)C(O)=C3C(=O)c4c(O)cccc4[C@@](C)(O)[C@H]3C[C@@H]12', 'Bacillus megaterium M018', '+++'),
  ('CC[C@H]1OC(=O)[C@H](C)[C@@H](O[C@H]2C[C@@](C)(OC)[C@@H](O)[C@H](C)O2)[C@H](C)[C@@H](O[C@@H]2O[C@H](C)C[C@H](N(C)C)[C@H]2O)[C@](C)(O)C[C@@H](C)C(=O)[C@H](C)[C@@H](O)[C@]1(C)O', 'Bacillus megaterium M018', '+++'),
  ('O=C(N[C@H](CO)[C@H](O)c1ccc([N+](=O)[O-])cc1)C(Cl)Cl', 'Bacillus megaterium M018', '++'),
  ('NC[C@H]1O[C@H](O[C@H]2[C@H](O)[C@@H](O[C@H]3O[C@H](CO)[C@@H](O)[C@H](N)[C@H]3O)[C@H](N)C[C@@H]2N)[C@H](O)[C@@H](O)[C@@H]1O', 'Bacillus megaterium M018', '+++');

Continue with the molecule presented below.
Task item: Please report the recorded Susceptibility degree of M018 for "C[C@@H](O)[C@H]1C(=O)N2C(C(=O)O)=C(SCCN=CN)C[C@H]12" .
Reply: +++

====

Test system: Bacillus megaterium M018
ASSAY EXPLANATION: Antibiotic susceptibility, antibiotic disks on Muller-Hinton medium
Assay type: cell-based
Parameters: key: +++ (very); ++ (somewhat); + (marginally); resistance is indicated by (−)
CONDITIONS: antibiotic disk, 48-hour incubation at 25° C.
RECORDED METRIC: Susceptibility degree of M018

INSERT INTO results (molecule, recorded_metric, obs_value) VALUES
  ('CC1(C)S[C@@H]2[C@H](NC(=O)[C@H](N)c3ccccc3)C(=O)N2[C@H]1C(=O)O [Ampicillin]', 'Susceptibility degree of M018', '++'),
  ('CCN1CCN(C(=O)N[C@@H](C(=O)N[C@@H]2C(=O)N3[C@@H]2SC(C)(C)[C@@H]3C(=O)O)c2ccccc2)C(=O)C1=O [Piperacillin]', 'Susceptibility degree of M018', '++'),
  ('[H]/N=C(/N)N[C@H]1[C@H](O)[C@@H](O)[C@H](O[C@@H]2O[C@@H](C)[C@](O)(C=O)[C@H]2O[C@@H]2O[C@@H](CO)[C@H](O)[C@@H](O)[C@@H]2NC)[C@@H](N/C(N)=N\[H])[C@@H]1O [Streptomycin]', 'Susceptibility degree of M018', '+'),
  ('CN(C)[C@@H]1C(O)=C(C(N)=O)C(=O)[C@@]2(O)C(O)=C3C(=O)c4c(O)cccc4[C@@](C)(O)[C@H]3[C@H](O)[C@@H]12 [Oxytetracycline]', 'Susceptibility degree of M018', '+++'),
  ('O=C(O)c1cn(C2CC2)c2cc(N3CCNCC3)c(F)cc2c1=O [Ciprofloxacin]', 'Susceptibility degree of M018', '+++');

Task item: Look up Susceptibility degree of M018: CO/N=C(\C(=O)N[C@@H]1C(=O)N2C(C(=O)O)=C(COC(N)=O)CS[C@H]12)c1ccco1 [Cefuroxime]
Reply: +++

Ref: patent US10602743B2
